- SYSTEM NAME: T1, p85β cSH2 (603–712) (mouse, UniProt O08908 603-712)
- T1 construct: PI3K regulatory subunit p85β, mouse, C-terminal SH2 domain, residues 603-712; also called cSH2 domain of p85β; source: E. coli, purified (glutathione-agarose, HRV 3C cleavage, S75 size exclusion)
- T1 sequence (looked up): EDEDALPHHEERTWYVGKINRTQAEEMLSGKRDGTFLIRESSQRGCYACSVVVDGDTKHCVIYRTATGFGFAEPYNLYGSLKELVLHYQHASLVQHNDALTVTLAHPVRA
- ASSAY METHOD TEXT: fluorescence polarisation; SH2 domain titrated into 5-FAM-labelled peptide (20 nM CD28, YSLV, pYSLV; 40 nM YSLM, pYSLM), 298 K, 96-well plates, single site binding isotherm
- STUDY CONDITIONS: both partners purified
Square brackets hold non-standard residues; d marks the D form. Ends that are not written are not given here. * marks the point of attachment. 5FAM = O=C1OC2(c3ccc(O)cc3Oc3cc(O)ccc32)c2ccc(C(=O)*)cc21; pY = N[C@@H](Cc1ccc(OP(=O)(O)O)cc1)C(=O)O
MEASUREMENT NAME: Kd (µM)
# output: bare number, implied unit µM

Recorded Kd for 5FAM-SD[pY]MNMTP (Known p85 SH2 target peptide from CD28; also called control peptide from CD28; source: synthetic peptide; bought: Biomatik) [[5-FAM]-SD-[pY]-MNMTP, CD28 peptide] , please?
0.1

Source: paper PMC9127371
